The measurements presented in this section are drawn from ChEMBL document CHEMBL1134782.

# Assay: Inhibition of platelet aggregation induced by PAF (2 ng/mL)
# Assay type: functional
Observed property: IC50 (µM)

Sample records with IC50:
I'd like to know its IC50. The compound in question is `OCc1ccc(-c2nn(Cc3ccccc3)c3cc(F)ccc23)o1`
53.4

Please give the measured IC50 for this compound: `COc1ccc2c(-c3ccc(CO)o3)nn(Cc3ccccc3)c2c1`
89.2

Requested read-out: IC50. Entry: `COC(=O)c1ccc(-c2nn(Cc3ccccc3)c3cc(F)ccc23)o1`
149

What does the data say about its IC50? Entry: `CCOC(=O)c1ccc(-c2nn(Cc3ccccc3)c3ccccc23)cc1`
164

Which IC50 value is on record for `OCc1ccc(-c2nn(Cc3ccccc3)c3ccccc23)o1` ?
87.3

[A] COCc1ccc(-c2nn(Cc3ccccc3)c3cc(C)ccc23)o1
[B] COCc1ccc(-c2nn(Cc3ccccc3)c3cc(F)ccc23)o1
Lab note: record which item had the higher IC50, A or B . # respond with the chosen item's label
B

[1] CCN(CC)Cc1ccc(-c2nn(Cc3ccccc3)c3ccccc23)o1
[2] OCc1ccc(-c2nn(-c3ccccc3)c3ccccc23)o1
Lab note: check whether 1 or 2 shows the higher recorded IC50. Please identify the chosen entry by its label.
2

---

# Assay: Inhibition of platelet aggregation induced by Collagen (10 uM)
# Type: functional
# Run parameters: in the assay text read “10 ug/mL” for “10 uM”
Observed property: IC50 (µM)

Param item = `O=C(O)c1ccc(-c2nn(Cc3ccccc3)c3ccccc23)o1` ; retrieve measured IC50.
75.5

Given the entry `COCc1ccc(-c2nn(Cc3ccccc3)c3cc(C)ccc23)o1` , report its measured IC50.
59.3

Which IC50 reading was recorded for the compound `COCc1ccc(-c2nn(Cc3ccccc3)c3cc4c(cc23)OCO4)o1` ?
113

Which IC50 reading was recorded for the compound `CCOC(=O)c1cccc(-c2nn(Cc3ccccc3)c3ccccc23)c1` ?
144

Consider the compound shown here: `OCc1ccc(-c2nn(Cc3ccccc3)c3cc(F)ccc23)o1` What is its recorded IC50?
25.2

Given the compound `COCc1ccc(-c2nn(Cc3ccccc3)c3cc(F)ccc23)o1` , what is its reported IC50?
64.1

So what's the measured IC50 for this one? `COCc1ccc(-c2nn(Cc3ccccc3)c3ccccc23)o1`
6.6

Suppose we examine the compound `OCc1cccc(-c2nn(Cc3ccccc3)c3ccccc23)c1` ; what IC50 value has been reported?
98.1

Field request: IC50 | item: `COc1ccc2c(-c3ccc(CO)o3)nn(Cc3ccccc3)c2c1`
46.7

State the recorded IC50 for this entry: `CCN(CC)Cc1ccc(-c2nn(Cc3ccccc3)c3ccccc23)o1`
50.4

[I] CCOC(=O)c1ccc(-c2nn(Cc3ccccc3)c3ccccc23)cc1
[II] OCc1ccc(-c2nn(Cc3ccccc3)c3ccccc23)cc1
Looking at recorded values for IC50, does I or II come in lower? State your choice using its label.
II

---

# Test target: Soluble guanylate cyclase (Homo sapiens) (UniProt Q02153+O75343+P33402+Q02108)
# Assay: sGC activation was determined in the presence of [alpha-32P]GTP at a concentration of 82 uM
# Format: protein-complex assay
Observed property: Activity (pM of cGMP (min)-1 (mg of protein)-1)

Consider the worked cases shown below.
Please look up its Activity (pM of cGMP (min)-1 (mg of protein)-1): `COCc1ccc(-c2nn(Cc3ccccc3)c3cc(F)ccc23)o1`
41.8

Which Activity (pM of cGMP (min)-1 (mg of protein)-1) is reported for this molecule? `OCc1ccc(-c2nn(Cc3ccccc3)c3cc(F)ccc23)o1`
37.2

Can you look up the measured Activity (pM of cGMP (min)-1 (mg of protein)-1) of `Cc1ccc2c(-c3ccc(CO)o3)nn(Cc3ccccc3)c2c1` for me?
35.1

// Activity (pM of cGMP (min)-1 (mg of protein)-1) lookup, key: `OCc1ccc(-c2nn(Cc3ccccc3)c3ccccc23)o1`
44.6

[a] COCc1ccc(-c2nn(Cc3ccccc3)c3ccccc23)o1
[b] CCN(CC)Cc1ccc(-c2nn(Cc3ccccc3)c3ccccc23)o1
Could you tell me which of a and b has the lower Activity (pM of cGMP (min)-1 (mg of protein)-1) reading? # respond with the chosen item's label
b
(b: 17.9, a: 32)

[P] OCc1ccc(-c2nn(-c3ccccc3)c3ccccc23)o1
[Q] COc1ccc2c(-c3ccc(CO)o3)nn(Cc3ccccc3)c2c1
Pick the one with the larger Activity (pM of cGMP (min)-1 (mg of protein)-1): P vs Q Answer by stating the label of the chosen item.
Q
(Q: 39.9, P: 27.8)
